- assayTarget: Glucose transporter (Leishmania mexicana)
- protocol: ST_JUDE_LEISH: Cytotoxicity at 2uM final concentration against transgenic Leishmania Mexicana promastigotes LmGT2 that are glucose transport deficient and complemented with the L. Mexicana glucose transporter 2. Activity is measured by DNA content using SYBR green in vitro
- Type: functional
endpointName: inhibition (%)
Kindly provide the numeric value in % only, without the unit symbol.

Challenge: Give its inhibition value. Item: c1cncc(CCNCc2cccc(-c3ccc(-c4nc5ccccc5[nH]4)s3)c2)c1
Response given: 4.65

Challenge: Give its inhibition value. Item: COc1ccc2nccc(N3CCC(SCCNCc4ccc5c(n4)NC(=O)CS5)C3)c2n1 (stereo not given)
Response given: 0.51

Challenge: Give its inhibition value. Item: CC(Cc1ccc(NC(=O)c2ccc(NCCc3ccccc3)cc2)cc1)NCCc1cccc(Cl)c1 (stereo not given)
Response given: -1.31

Challenge: Give its inhibition value. Item: CC(C)(C)c1ccc(CN2CCC(CNC(=O)c3cc(-c4cccc(F)c4)cs3)C2)cc1 (stereo not given)
Response given: 4.16

Challenge: Give its inhibition value. Item: CCCS(=O)(=O)c1nc(S(=O)(=O)c2ccc(Cl)cc2)c(N2CCCCC2)s1
Response given: -1.01

###

- assayTarget: Glucose transporter (Leishmania mexicana) (UniProt O61059)
- protocol: ST_JUDE_LEISH: Cytotoxicity at 2uM final concentration against transgenic Leishmania Mexicana promastigotes LmGT2 that are glucose transport deficient and complemented with the L. Mexicana glucose transporter 2. Activity is measured by DNA content using SYBR green in vitro
- Assay type: functional
endpointName: inhibition

Worked cases, answers included:
molecule: CC(C)CC(=O)N(Cc1ccc(-c2ccc(CNC3Cc4ccccc4C3)cc2)cc1)C1CCNCC1
inhibition: 10.6%

molecule: Fc1ccc(OC2CN(c3nccc(NCc4ccccc4Cl)n3)C2)cc1
inhibition: -0.6%

molecule: Cc1cccc(-c2nn(-c3ccccc3)c3[nH]c(=O)c(CNC4CCCC4)cc23)c1
inhibition: -0.29%

molecule: CC(CN(C)C)C(=O)Nc1ccc(-c2cccc(-c3nc4ccccc4[nH]3)c2)cc1 (stereo not given)
inhibition: 8.05%

molecule: CCCc1ccc(NC(=O)c2cccc(CN3CCCN(Cc4cccc(O)c4)CC3)c2)cc1
inhibition: 0.71%

molecule: CCCCN1CCN(CCCNc2c3ccccc3nc3ccccc23)CC1
inhibition: 55.3%

Challenge: Give its inhibition value. Item: CC(C)(C)c1ccc(NC(=O)c2cccc(CN3CCCN(Cc4ccc(F)cc4)CC3)c2)cc1
Response given: 1.15%

Challenge: Give its inhibition value. Item: CCN(CC)c1ccc(C(=O)Cn2ccc(=N)cc2)cc1
Response given: 0.82%

Challenge: Give its inhibition value. Item: COc1ccc2c(c1)CCCC2C(C)NCC(O)c1cccc(C(F)(F)F)c1 (stereo not given)
Response given: 6.3%

Challenge: Give its inhibition value. Item: CCN(CC)CCNc1c2ccc(Cl)cc2nc2ccc(OC)nc12
Response given: 3.99%

###

- assayTarget: Solute carrier family 2, facilitated glucose transporter member 1 (Homo sapiens)
- protocol: ST_JUDE_LEISH: Cytotoxicity at 2uM final concentration against transgenic Leishmania Mexicana promastigotes LmGLUT1 that are glucose transport deficient and complemented with the human glucose transporter GLUT1. Activity is measured by DNA content using SYBR green in vitro
- Type: functional
inhibition values for the compounds below.
Kindly provide the numeric value in % only, without the unit symbol.

recordSmiles: O=C(Nc1ccc(CCNC2=NCCN2)cc1)Nc1ccc(CCNC2=NCCN2)cc1
assayTarget: Solute carrier family 2, facilitated glucose transporter member 1 (Homo sapiens)
inhibition (%): 3.77

Challenge: Give its inhibition value. Item: COc1ccc(O)cc1Cc1cnc2nc(N)nc(N)c2c1C
Response given: -0.06

Challenge: Give its inhibition value. Item: Cc1cc(NC(=O)c2ccc(S(=O)(=O)N(Cc3ccccc3)C(C)C)cc2)no1
Response given: 3.7

Challenge: Give its inhibition value. Item: O=C(Nc1ccc(Cn2ncc(N3CCCNCC3)c(Cl)c2=O)cc1)Nc1ccc(F)cc1[N+](=O)[O-]
Response given: 10.2

Challenge: Give its inhibition value. Item: NC(=O)COc1c(C2CCN(CCCCNC(=O)c3ccc(-c4ccc(Cl)cc4)c(O)c3)CC2)ccc2c1CCCC2
Response given: -0.69

Challenge: Give its inhibition value. Item: CS(=O)(=O)c1ccc(-c2cncc(Cl)n2)cc1
Response given: 3.73
